Data origin: patent US20250154109A1

ASSAY_SYSTEM: human Nav1.8 (Homo sapiens)
Sequence (Q9Y5Y9 whole entry): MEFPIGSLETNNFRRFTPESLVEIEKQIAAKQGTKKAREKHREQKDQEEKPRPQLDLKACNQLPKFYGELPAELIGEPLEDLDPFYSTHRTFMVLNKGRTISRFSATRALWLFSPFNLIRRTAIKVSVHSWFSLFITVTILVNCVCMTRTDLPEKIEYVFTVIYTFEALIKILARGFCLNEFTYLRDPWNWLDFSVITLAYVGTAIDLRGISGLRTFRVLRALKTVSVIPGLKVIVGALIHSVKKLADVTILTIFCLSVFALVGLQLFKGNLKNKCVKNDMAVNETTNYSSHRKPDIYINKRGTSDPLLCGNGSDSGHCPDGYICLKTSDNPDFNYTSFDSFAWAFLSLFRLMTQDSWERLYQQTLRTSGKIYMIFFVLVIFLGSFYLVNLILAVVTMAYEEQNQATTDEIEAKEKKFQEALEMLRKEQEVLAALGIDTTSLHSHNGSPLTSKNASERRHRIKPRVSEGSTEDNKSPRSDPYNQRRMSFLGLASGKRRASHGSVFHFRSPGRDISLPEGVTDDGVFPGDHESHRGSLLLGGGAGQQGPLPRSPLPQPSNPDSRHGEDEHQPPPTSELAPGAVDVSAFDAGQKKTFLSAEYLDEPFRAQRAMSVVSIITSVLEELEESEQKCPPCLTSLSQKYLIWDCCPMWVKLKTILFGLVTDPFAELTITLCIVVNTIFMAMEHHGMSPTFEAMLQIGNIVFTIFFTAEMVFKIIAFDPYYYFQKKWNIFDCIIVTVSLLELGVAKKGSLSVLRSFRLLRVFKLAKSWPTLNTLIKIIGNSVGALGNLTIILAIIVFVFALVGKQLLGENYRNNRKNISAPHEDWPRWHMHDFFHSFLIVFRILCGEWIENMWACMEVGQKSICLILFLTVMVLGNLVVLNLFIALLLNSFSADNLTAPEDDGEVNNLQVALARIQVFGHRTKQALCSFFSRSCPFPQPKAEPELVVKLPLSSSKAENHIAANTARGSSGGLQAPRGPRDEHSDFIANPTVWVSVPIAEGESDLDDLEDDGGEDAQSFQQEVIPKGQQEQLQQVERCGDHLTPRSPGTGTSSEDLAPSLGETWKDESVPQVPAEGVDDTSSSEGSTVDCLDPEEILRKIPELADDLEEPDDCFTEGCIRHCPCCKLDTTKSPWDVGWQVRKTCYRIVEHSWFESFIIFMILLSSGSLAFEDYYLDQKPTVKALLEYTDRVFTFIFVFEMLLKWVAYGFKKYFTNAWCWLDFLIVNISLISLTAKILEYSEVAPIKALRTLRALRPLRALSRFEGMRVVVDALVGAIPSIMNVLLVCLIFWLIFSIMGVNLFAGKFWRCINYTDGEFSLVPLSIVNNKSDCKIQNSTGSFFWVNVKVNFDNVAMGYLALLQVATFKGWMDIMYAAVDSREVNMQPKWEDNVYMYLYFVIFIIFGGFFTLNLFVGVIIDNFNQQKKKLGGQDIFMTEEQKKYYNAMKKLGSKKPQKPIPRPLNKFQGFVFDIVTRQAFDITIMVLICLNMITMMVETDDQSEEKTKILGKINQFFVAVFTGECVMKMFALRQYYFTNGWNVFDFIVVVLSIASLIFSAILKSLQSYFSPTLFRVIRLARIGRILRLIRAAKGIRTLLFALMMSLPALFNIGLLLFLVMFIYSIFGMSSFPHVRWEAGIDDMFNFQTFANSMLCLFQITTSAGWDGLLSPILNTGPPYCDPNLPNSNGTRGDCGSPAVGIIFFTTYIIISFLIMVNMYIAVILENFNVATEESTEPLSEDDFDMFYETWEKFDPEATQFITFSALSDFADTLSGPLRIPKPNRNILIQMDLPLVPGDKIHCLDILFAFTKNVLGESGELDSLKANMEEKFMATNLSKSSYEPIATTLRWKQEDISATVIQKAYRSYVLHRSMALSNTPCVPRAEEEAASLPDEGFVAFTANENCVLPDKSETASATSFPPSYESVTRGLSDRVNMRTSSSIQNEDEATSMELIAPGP
TEST_DETAILS: SyncroPatch384PE assay (automated patch clamp)
Type: cell-based
CONDITION_DESCRIPTION: resting state block (P1 measurement), human Nav1.8/b3 CHO cells, read-out: P1 IC50
Experimental: Compounds were tested on recombinant human Nav1.8/b3 stably transfected CHO cells using the SyncroPatch384PE system (Nanion Technologies), an automated patch clamp device. […] Whole cell patch clamp recordings were conducted according to Nanion's standard procedure for SyncroPatch384PE®. […] The potency of the compounds was assessed on two read-outs, resting state block (P1 measurement) or inactivated state block (P2 measurement) to obtain IC50 values. […]
VALUE_TYPE: IC50

Worked cases, IC50 given:
CNCCN=[S@](C)(=O)c1cccc(NC(=O)c2c(N3CCCC(F)(F)CC3)ncc(-c3cnn(C)c3)c2C)c1: 5 to 50 nM
C[S@@](=N)(=O)c1cccc(NC(=O)c2cc(Cl)c(C(F)(F)F)cc2N2CCCC(F)(F)CC2)c1: ≤ 5 nM
Cc1nc(N2CCCC(F)(F)CC2)c(C(=O)Nc2cccc(S(C)(=N)=O)c2)c(C)c1Cl (stereo not shown): ≤ 5 nM
CS(=N)(=O)c1cccc(NC(=O)c2nnc(C(F)(F)F)cc2N2CCCCCC2)c1 (stereo not shown): > 200 nM
Cc1c(C#N)c(C(F)(F)F)nc(N2CCCC(F)(F)CC2)c1C(=O)Nc1cccc([S@](C)(=N)=O)c1: ≤ 5 nM
Cc1c(-c2nccs2)cnc(N2CCCC(F)(F)CC2)c1C(=O)Nc1cccc(S(C)(=N)=O)c1 (stereo not shown): 5 to 50 nM

Query: What IC50 value was documented for this compound, CNCC(=O)N=[S@](C)(=O)c1cccc(NC(=O)c2c(N3CCCC(F)(F)CC3)ncc(-c3ccc(C#N)cc3)c2C)c1 ?
Result: ≤ 5 nM

====

ASSAY_SYSTEM: UniProtKB Q9Y5Y9
TEST_DETAILS: SyncroPatch384PE assay (automated patch clamp)
Assay type: cell-based
CONDITION_DESCRIPTION: resting state block (P1 measurement), human Nav1.8/b3 CHO cells, read-out: P1 IC50
Please provide measured IC50 for the entries that follow.

Worked cases, IC50 given:
Cc1c(-c2ccc(Cl)c(F)c2)cnc(N2CCCC(F)(F)CC2)c1C(=O)Nc1cccc([S@](C)(=N)=O)c1 [Example 166]: ≤ 5 nM
Cc1c(-c2ccccc2F)cnc(N2CCCC(F)(F)CC2)c1C(=O)Nc1cccc(S(C)(=N)=O)c1 (stereo not shown) [Example 92]: ≤ 5 nM
Cc1c(-c2ccc(C(F)F)cc2)cnc(N2CCCC(F)(F)CC2)c1C(=O)Nc1cccc(S(C)(=N)=O)c1 (stereo not shown) [Example 87]: ≤ 5 nM
Cc1c(-c2cnn(C)c2)cnc(N2CCCC(F)(F)CC2)c1C(=O)Nc1cccc([S@@](C)(=O)=NC(=O)C(N)C(F)(F)F)c1 (stereo partly shown) [Example 174]: 5 to 50 nM

Record IC50 per entry; entries follow.
1. Cc1c(C(F)(F)F)cnc(N2CCCC(F)(F)CC2)c1C(=O)Nc1ccnc([S@@](C)(=N)=O)c1 (single isomer, unassigned) [Example 188]
2. Cc1c(C2CC2)nnc(N2CCCC(F)(F)CC2)c1C(=O)Nc1cccc(S(C)(=N)=O)c1 (stereo not shown) [Example 22]
3. Cc1c(-c2cccnc2)cnc(N2CCCC(F)(F)CC2)c1C(=O)Nc1cccc(S(C)(=N)=O)c1 (stereo not shown) [Example 84]

Result:
1: ≤ 5 nM; 2: > 200 nM; 3: 50 to 100 nM
